read-out: xenobiotic metabolism (CYP1A1), CYP1A1 (gene 1543); assay: CLD_CYP1A1_48hr: CellzDirect (CLD) Gene Expression Assay for xenobiotic metabolism (CYP1A1) at 48 hours (AID 2283705)
Records with an inconclusive call do not appear. Active and inactive are the calls of the source. How the source made its calls: active means hit-call score of the fitted dose curve at least 0.9, where 1 is the maximum; inconclusive means response in the unintended direction; inactive means score below 0.9.
Could you please pick one outcome from this set? T (active), F (inactive)

OC(c1ccc(Cl)cc1)(c1ccc(Cl)cc1)C(Cl)(Cl)Cl :: T
O=P(O)(O)CCCl :: F
CNC(=O)Oc1cccc2ccccc12 :: T

[ask] Tell me the assay call for Nc1c(Cl)c(Cl)nc(C(=O)O)c1Cl please.
[reply] F

###

read-out: Pselectin, SELP (gene 6403); test: BSK_4H_Pselectin: BioMAP Diversity Plus: 4H Assay for Pselectin Biomarker Activity (AID 2283026); conditions: primary human endothelial cells (HUVEC); actives raise or lower the signal
Activity calls are given as the source filed them. The calls were made as follows: active = hit-call score of the fitted dose curve at least 0.9, where 1 is the maximum; inactive = score below 0.9.
Return exactly one item of active, inactive

Nc1cnn(-c2ccccc2)c(=O)c1Cl :: inactive
CC(C)N1C(=O)N(c2ccccc2)CSC1=NC(C)(C)C :: active
CCOP(=O)(OCC)Oc1nc(Cl)c(Cl)cc1Cl :: active
CCOC(=O)C(C)OC(=O)c1cc(Oc2ccc(C(F)(F)F)cc2Cl)ccc1[N+](=O)[O-] (stereo unspecified) :: inactive
CC(C)Oc1cccc(NC(=O)c2ccccc2C(F)(F)F)c1 :: inactive

// next entry
[ask] # outcome recorded in this test, key = CC(C)=CC1C(C(=O)OCc2coc(Cc3ccccc3)c2)C1(C)C (stereo unspecified)
[reply] inactive

###

read-out: JUN Transcription Factor, JUN (gene 3725); experiment: LTEA_HepaRG_JUN: Life Technologies and Expression Analysis (LTEA) Assay for JUN Transcription Factor using HepaRG (AID 2283513); settings: mRNA level, 48 h; actives raise or lower the signal
Active and inactive are the calls of the source. The calls were made as follows: active = hit-call score of the fitted dose curve at least 0.9, where 1 is the maximum; inactive = score below 0.9.
A correct response names exactly one class from label 1 = active, label 0 = inactive

COP(=S)(OC)Oc1ccc([N+](=O)[O-])c(C)c1 :: label 0

[ask] Per the assay record, what outcome was assigned to COP(=O)(OC)O/C(C)=C/C(=O)N(C)C ?
[reply] label 0

[ask] Hi, do you know how CS(=O)(=O)c1ccc(C(=O)C2C(=O)CCCC2=O)c([N+](=O)[O-])c1 came out in this test?
[reply] label 0

[ask] So what was the verdict on CCN(CC)C(=O)C(C)Oc1cccc2ccccc12 (centres undefined) in this test?
[reply] label 0

[ask] Hello, I am checking results. What call was entered for CCOc1nc(C(Cl)(Cl)Cl)ns1 ?
[reply] label 1

[ask] Look up the recorded call for O=c1n(Cl)c(=O)n(Cl)c(=O)n1Cl in this test.
[reply] label 0

[ask] GET /call?item= CCOP(=O)(OCC)Oc1nc(Cl)c(Cl)cc1Cl returns the recorded outcome of this test.
[reply] label 0

[ask] I would be grateful if you could indicate the recorded call for CNC(=O)Oc1cccc2ccccc12 .
[reply] label 0

[ask] Hi, sorry to bother you, what did the test record for CO/N=C(/C1=NOCCO1)c1ccccc1Oc1ncnc(Oc2ccccc2Cl)c1F ?
[reply] label 0

###

assay: APR_HepG2_CellCycleArrest_1hr: Apredica 1-hour HepG2 Assay for Cell Cycle Arrest (AID 2282666); conditions: high-content imaging, actives raise or lower the signal
Active and inactive are the calls of the source. The calls were made as follows: active = hit-call score of the fitted dose curve at least 0.9, where 1 is the maximum; inactive = score below 0.9.
Respond with a class label; see yes (1) for active, no (0) for inactive

[ask] Entry COC(=O)N(C(=O)N1CO[C@@]2(C(=O)OC)Cc3cc(Cl)ccc3C2=N1)c1ccc(OC(F)(F)F)cc1 : call = ?
[reply] no (0)

[ask] Recorded call for O=C(O)c1c(Cl)ccc2cc(Cl)cnc12 ?
[reply] no (0)

[ask] Hi, sorry to bother you, what did the test record for OC(c1ccc(Cl)cc1)(c1ccc(Cl)cc1)C(Cl)(Cl)Cl ?
[reply] no (0)

[ask] What classification did Cc1ccc(N=CN(C)C=Nc2ccc(C)cc2C)c(C)c1 end up with in this test?
[reply] no (0)

[ask] Which result was noted for this molecule in the test: CCOc1nc(F)cc2nc(S(=O)(=O)Nc3c(Cl)cccc3Cl)nn12
[reply] no (0)

[ask] Called result for COCc1cnc(C2=NC(C)(C(C)C)C(=O)N2)c(C(=O)O)c1 (stereo not given)
[reply] no (0)

###

read-out: Monokine induced gamma interferon (MIG), CXCL9 (gene 4283); test: BSK_SAg_MIG: BioMAP Diversity Plus: SAg Assay for Monokine induced gamma interferon (MIG) Biomarker Activity (AID 2283092); conditions: primary human HUVEC with PBMC; actives raise or lower the signal
Activity calls are given as the source filed them. The calls were made as follows: active = hit-call score of the fitted dose curve at least 0.9, where 1 is the maximum; inactive = score below 0.9.
Write down the outcome that applies. Available outcomes: active, inactive

As a guide, the following entries are already answered.
CCOC(=O)C(C)OC(=O)c1cc(Oc2ccc(C(F)(F)F)cc2Cl)ccc1[N+](=O)[O-] (centres undefined) :: inactive
CCCN(CC)CC1COC2(CCC(C(C)(C)C)CC2)O1 (centres undefined) :: inactive
Cn1c(-c2ccccc2)cc(-c2ccccc2)[n+]1C :: inactive
COc1ccc(-c2ccccc2)cc1NNC(=O)OC(C)C :: inactive
CCOc1cc(C(C)(C)C)ccc1C1COC(c2c(F)cccc2F)=N1 (centres undefined) :: active
O=c1n(Cl)c(=O)n(Cl)c(=O)n1Cl :: inactive
COP(=S)(OC)Oc1ccc([N+](=O)[O-])c(C)c1 :: inactive
COC(=O)NS(=O)(=O)c1ccc(N)cc1 :: inactive
C=C(C)CN(CC)c1c([N+](=O)[O-])cc(C(F)(F)F)cc1[N+](=O)[O-] :: inactive
CCCCOCN(C(=O)CCl)c1c(CC)cccc1CC :: active

[ask] GET /call?item= Nc1c(Cl)c(F)nc(OCC(=O)O)c1Cl returns the recorded outcome of this test.
[reply] inactive

[ask] Just curious, what result did CCSC(=O)N1CCCCCC1 get here?
[reply] inactive

[ask] // outcome(item) with item = OC(c1ccc(Cl)cc1)(c1ccc(Cl)cc1)C(Cl)(Cl)Cl
[reply] active

[ask] Test call for this compound, please: CS(=O)(=O)c1cc(C(F)(F)F)ccc1C(=O)c1cnoc1C1CC1
[reply] inactive

###

read-out: solute carrier (SLCO1B1), SLCO1B1 (gene 10599); experiment: LTEA_HepaRG_SLCO1B1: Life Technologies and Expression Analysis (LTEA) Assay for solute carrier (SLCO1B1) using HepaRG (AID 2283530); details: mRNA level, 48 h; actives raise or lower the signal
Active and inactive are the calls of the source. How the source made its calls: active means hit-call score of the fitted dose curve at least 0.9, where 1 is the maximum; inactive means score below 0.9.
One label from this list, please: active, inactive

N#CN=C1SCCN1Cc1ccc(Cl)nc1 :: inactive

[ask] Recorded test outcome, item OC(c1ccc(Cl)cc1)(c1ccc(Cl)cc1)C(Cl)(Cl)Cl
[reply] active

[ask] For CCCN(CC)CC1COC2(CCC(C(C)(C)C)CC2)O1 (stereo unspecified) , what call appears in the results of this test?
[reply] inactive

[ask] Which result was noted for this compound in the test: CNC(=O)Oc1cccc2ccccc12
[reply] inactive

###

assay: ATG_RORE_CIS: Attagene CIS-FACTORIAL HepG2 Assay for human RAR-related Orphan Receptor Element (RORE) (AID 2282959); settings: HepG2 Attagene cis-factorial RORE reporter, mRNA; actives raise or lower the signal
Activity calls are given as the source filed them. The calls were made as follows: active = hit-call score of the fitted dose curve at least 0.9, where 1 is the maximum; inactive = score below 0.9.
Classes to choose from: class 1 for active, class 0 for inactive

Record excerpt, results attached:
CC(C)(C)C(=O)C(Oc1ccc(Cl)cc1)n1cncn1 (configuration not stated) :: class 0
CSC(=O)c1c(C(F)F)nc(C(F)(F)F)c(C(=O)SC)c1CC(C)C :: class 0
COP(=S)(OC)SCn1nnc2ccccc2c1=O :: class 1
CN=C=S :: class 0
COP(=O)(OC)O/C(C)=C/C(=O)N(C)C :: class 0

[ask] For this compound, state the assay outcome: Cc1c(COC(=O)[C@@H]2[C@H](/C=C(\Cl)C(F)(F)F)C2(C)C)cccc1-c1ccccc1
[reply] class 0

[ask] Returns: the outcome recorded for CCC(C)n1c(=O)[nH]c(C)c(Br)c1=O (configuration not stated) in this assay.
[reply] class 0

[ask] Record request — test call for COC(=O)NC(=S)Nc1ccccc1NC(=S)NC(=O)OC
[reply] class 0

[ask] Which result was noted for this compound in the test: CO/N=C(/C1=NOCCO1)c1ccccc1Oc1ncnc(Oc2ccccc2Cl)c1F
[reply] class 0

[ask] Could you please tell me the result logged for Cc1ccc(N=CN(C)C=Nc2ccc(C)cc2C)c(C)c1 in this assay?
[reply] class 0

###

target: CCAAT/enhancer-binding protein beta (Homo sapiens) (UniProt P17676); test: ATG_C_EBP_CIS: Attagene CIS-FACTORIAL HepG2 Assay for human CCAAT/Enhancer Binding Protein (C/EBP) beta (AID 2282927); conditions: HepG2 Attagene cis-factorial transcription factor reporter; actives raise or lower the signal
Sequence (P17676 whole entry, looked up): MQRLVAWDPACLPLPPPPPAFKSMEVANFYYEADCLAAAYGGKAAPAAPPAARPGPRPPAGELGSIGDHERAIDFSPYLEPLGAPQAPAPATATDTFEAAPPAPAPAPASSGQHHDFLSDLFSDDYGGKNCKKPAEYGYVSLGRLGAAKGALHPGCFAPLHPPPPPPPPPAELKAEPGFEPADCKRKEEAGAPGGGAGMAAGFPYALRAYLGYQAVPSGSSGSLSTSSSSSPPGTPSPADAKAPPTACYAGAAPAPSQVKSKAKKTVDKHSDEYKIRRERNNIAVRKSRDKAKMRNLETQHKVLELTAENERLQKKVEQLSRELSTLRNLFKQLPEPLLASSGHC
Active and inactive are the calls of the source. Rule for the calls: active = hit-call score of the fitted dose curve at least 0.9, where 1 is the maximum; inactive = score below 0.9.
Pick one and only one: active, inactive

Here's what some known entries look like.
CCCC(=NOCC)C1=C(O)CC(CC(C)SCC)CC1=O (stereo not given) :: inactive
C=C(C)CN(CC)c1c([N+](=O)[O-])cc(C(F)(F)F)cc1[N+](=O)[O-] :: inactive
N#Cc1c[nH]cc1-c1cccc2c1OC(F)(F)O2 :: active
CCOc1nc(C(Cl)(Cl)Cl)ns1 :: inactive
COC(=O)N(C(=O)N1CO[C@@]2(C(=O)OC)Cc3cc(Cl)ccc3C2=N1)c1ccc(OC(F)(F)F)cc1 :: inactive

[ask] Dear all, I need the recorded test outcome for Cc1ccc(N=CN(C)C=Nc2ccc(C)cc2C)c(C)c1 , thank you.
[reply] inactive

[ask] Field: outcome | Entry: CCOP(=S)(OCC)Oc1nc(Cl)n(C(C)C)n1
[reply] inactive

[ask] Called result for CC(C)=CC1C(C(=O)OCc2coc(Cc3ccccc3)c2)C1(C)C (stereo not given)
[reply] inactive

[ask] Check the results log: what was the call for O=C1C2CC=CCC2C(=O)N1SC(Cl)(Cl)Cl (stereo not given) ?
[reply] inactive
